FYI, the data here is from ChEMBL document CHEMBL3992522.

# System: Leishmania donovani
# METHOD: Antileishmanial activity against Leishmania donovani MHOM/IN/80/DD8 amastigote forms harboring luciferase gene infected in mouse J774 cells at 50 uM after 72 hrs by Steady-Glo reagent based luminescence assay relative to control
# Assay type: functional
Activity calls are given as the source filed them. The calls are words filed in the database; no cut-off is given here.
MEASURED_QUANTITY: growth inhibition (GI)

>  <MOLECULE>
CC1(C)CC(=O)C2=C(C1)Nc1c(c(-c3c[nH]c4ccccc34)nn1-c1ccc(Cl)cc1)C2c1ccc(Cl)cc1 (centres undefined)

>  <TARGET_ENTITY>
Leishmania donovani

>  <growth inhibition (GI)>
inactive

$$$$
>  <MOLECULE>
COc1ccc(OC)c(-c2c3c(nc4c2c(-c2c[nH]c5ccccc25)nn4-c2ccc(Cl)cc2)CC(C)(C)CC3=O)c1

>  <TARGET_ENTITY>
Leishmania donovani

>  <growth inhibition (GI)>
inactive

$$$$
>  <MOLECULE>
COc1ccc(C2C3=C(Nc4c2c(-c2c[nH]c5ccccc25)nn4-c2ccc(Cl)cc2)c2ccccc2C3=O)c(OC)c1OC (centres undefined)

>  <TARGET_ENTITY>
Leishmania donovani

>  <growth inhibition (GI)>
inactive

$$$$
>  <MOLECULE>
O=C1C2=C(Nc3c(c(-c4c[nH]c5ccccc45)nn3-c3ccc(Cl)cc3)C2c2ccc(Cl)cc2)c2ccccc21 (centres undefined)

>  <TARGET_ENTITY>
Leishmania donovani

>  <growth inhibition (GI)>
inactive

$$$$
>  <MOLECULE>
COc1ccc(-c2c3c(nc4c2c(-c2c[nH]c5ccccc25)nn4-c2ccc(Cl)c(Cl)c2)CC(C)(C)CC3=O)cc1OC

>  <TARGET_ENTITY>
Leishmania donovani

>  <growth inhibition (GI)>
inactive

$$$$

Could you report growth inhibition (GI) for every entry in the following list?
1. CC1(C)CC(=O)c2c(nc3c(c(-c4c[nH]c5ccccc45)nn3-c3ccc(Cl)cc3)c2-c2ccc(Cl)cc2Cl)C1
2. CC1(C)CC(=O)c2c(nc3c(c(-c4c[nH]c5ccccc45)nn3-c3ccc(F)cc3)c2-c2ccc(Cl)cc2)C1
3. CC1(C)CC(=O)c2c(nc3c(c(-c4c[nH]c5ccccc45)nn3-c3ccc(Cl)cc3)c2-c2ccc(Cl)cc2)C1
4. COc1ccc(-c2c3c(nc4c2c(-c2c[nH]c5ccccc25)nn4-c2ccc(Cl)cc2)-c2ccccc2C3=O)cc1
5. COc1cc(-c2c3c(nc4c2c(-c2c[nH]c5ccccc25)nn4-c2ccc(Cl)cc2)CC(C)(C)CC3=O)cc(OC)c1OC

1: inactive; 2: inactive; 3: inactive; 4: inactive; 5: inactive
